Source of measurements: ChEMBL document CHEMBL4610074

Assay: Hemolytic activity in human RBC at 180 uM measured after 1 hr relative to control
Type: ADME, cell-based, Erythrocyte
Conditions: red blood cells (erythrocytes), read-out: Activity

SUBSTANCE	hemolysis at 1 h, 180 µM
H-FIIWPLRYRK-NH2	< 5%
